These data points were gathered from BindingDB's records for doi:10.7270/Q2M61NDW.

# ASSAYED_TARGET: UniProt P00784
# Sequence (P00784 whole entry): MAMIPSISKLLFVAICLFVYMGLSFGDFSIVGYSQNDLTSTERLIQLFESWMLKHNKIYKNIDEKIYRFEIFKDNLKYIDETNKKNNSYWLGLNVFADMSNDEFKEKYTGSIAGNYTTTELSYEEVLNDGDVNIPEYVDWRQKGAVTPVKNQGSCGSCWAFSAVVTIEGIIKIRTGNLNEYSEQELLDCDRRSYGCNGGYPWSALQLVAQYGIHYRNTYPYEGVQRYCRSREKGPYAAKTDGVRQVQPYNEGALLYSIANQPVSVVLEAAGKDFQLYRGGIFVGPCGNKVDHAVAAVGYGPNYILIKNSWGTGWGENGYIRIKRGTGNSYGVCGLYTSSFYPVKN
# ASSAY_METHOD_TEXT: Pseudo-first order rate constant for inhibition of thiol-dependent papain enzyme
Record form. Attribute: koff. Fill in for each entry.
Respond with the bare value in s⁻¹.

**Q:** # get_value(readout='koff', item= `CN(N=O)c1ccccc1` )
**A:** 0.00095

**Q:** # get_value(readout='koff', item= `CN(N=O)c1ccccc1[N+](=O)[O-]` )
**A:** 0.000433

**Q:** # get_value(readout='koff', item= `CN(N=O)c1ccc(Cl)cc1` )
**A:** 0.000283

**Q:** # get_value(readout='koff', item= `CN(N=O)c1cccc(O)c1` )
**A:** 0.0006

**Q:** # get_value(readout='koff', item= `CN(N=O)c1ccccc1O` )
**A:** 0.000183
